B1: Transitional endoplasmic reticulum ATPase, residues 26 to 106; numbered along this chain, P55072 (parent)
chain: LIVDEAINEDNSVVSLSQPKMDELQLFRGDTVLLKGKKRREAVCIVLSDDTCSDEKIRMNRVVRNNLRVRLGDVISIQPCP

- Variants of: B1
- METHOD NOTES: abundance fitness (aPCA) (normalised: wild type 0, dead -1); higher = more abundant; growth selection in yeast, the domain comes from the species named
- MEASUREMENT PARAMETERS: Homo sapiens
MEASUREMENT TYPE: abundance fitness
Lab note: jot the number down without any unit.

"N65P" has a reported abundance fitness of -0.926

"D22P" has a reported abundance fitness of -0.862

"I75F" has a reported abundance fitness of -0.859

"K37D" has a reported abundance fitness of -0.126

"S17K" has a reported abundance fitness of -0.361

"D30W" has a reported abundance fitness of -0.286

"Q25E" has a reported abundance fitness of -0.156

"R39C" has a reported abundance fitness of 0.034

"S76Y" has a reported abundance fitness of -0.107

"S12Y" has a reported abundance fitness of -0.119

"D49C" has a reported abundance fitness of -0.468

"R28G" has a reported abundance fitness of -0.027

"M21H" has a reported abundance fitness of -1.21

"V14T" has a reported abundance fitness of -0.743

"Q25D" has a reported abundance fitness of 0.048

"D73N" has a reported abundance fitness of -0.102

"L47V" has a reported abundance fitness of -0.018
